# System: EKVX NSCLC
# measurement description: NCI-60 one-dose screen, 48 h (100 = growth as untreated, 0 = no growth, -100 = all killed)
# condition summary: 10 µM unless noted
About 83,000 compounds went through this panel and 20% of them were active in at least one assay; those are over-represented in the sample as a whole. Activity calls are given as the source filed them. How the source made its calls: active means growth percent below 10; inactive means the rest.
attribute measured: growth

Data request: Look up growth of `CCOC(=O)/C=C/c1cc2cc(-c3csc4ccccc34)ccc2[nH]1` and report it.
Data returned: 72.7% (inactive)

Data request: Look up growth of `COc1nc2c(c(=O)n1C)CN(c1ccccc1)C(=O)CN2C` and report it.
Data returned: 58.2% [100 µM] (inactive)

Data request: Look up growth of Cc1c(C(=O)NC(Cc2ccccc2)C(O)C(=O)NCc2ccc(F)cc2)[nH]c2ccccc2c1=O (centres undefined) and report it.
Data returned: 104% (inactive)

Data request: Look up growth of `CN(C)CCNc1nc2ccccc2c2c1c1c(n2Cc2ccccc2)-c2ccccc2C1=O` and report it.
Data returned: -87.8% (active)
